# assay remarks: qHTS RealTime-Glo MT Cell Viability Assay in HEK293 cells - 24 hour (AID 1224886); note: nearly all actives have a fitted effect of over 50% in size
# assay setup: RealTime-Glo luminescence; series mostly up to 76.8 µM
Inconclusive results are not listed. Activity calls are given as the source filed them. Calls come from the whole dose curve; as a rule, active = well fitted cell-killing curve with a large enough effect in the repeat runs; inconclusive = weak or mixed curves, or effect the other way; inactive = flat fitted curve, though single readings scatter.
A correct response names exactly one class from T (active), F (inactive)

{"columns": ["molecule", "qualitative label"],
 "data": [
  ["CC1(C)CCC[C@]2(C)[C@H]3CCO[C@]3(C)CC[C@@H]12", "F"],
  ["C1CCC(SSC2CCCCC2)CC1", "F"],
  ["O=C(Nc1ccc2c(O)c(N=Nc3ccc(N=Nc4ccc(S(=O)(=O)O)cc4)cc3)c(S(=O)(=O)O)cc2c1)c1ccccc1", "F"],
  ["O=C(O)c1cc(-c2ccc(F)cc2F)ccc1O", "F"],
  ["CC(C)OC(=O)C(O)(CC(=O)O)CC(=O)O", "F"]
]}

Consider the record given below.
Q: Look up the recorded call for CN1CCN(Cc2cc(-c3ccc4[nH]c(=O)oc4c3)co2)[C@@H](c2ccc(F)cc2)C1 in this test.
Ans: T

Data origin: PubChem BioAssay (Tox21)
